All values here come from patent US20230265151A1.

Target: T1, human GIP receptor (human, UniProt P48546 22-466)
T1 sequence (looked up): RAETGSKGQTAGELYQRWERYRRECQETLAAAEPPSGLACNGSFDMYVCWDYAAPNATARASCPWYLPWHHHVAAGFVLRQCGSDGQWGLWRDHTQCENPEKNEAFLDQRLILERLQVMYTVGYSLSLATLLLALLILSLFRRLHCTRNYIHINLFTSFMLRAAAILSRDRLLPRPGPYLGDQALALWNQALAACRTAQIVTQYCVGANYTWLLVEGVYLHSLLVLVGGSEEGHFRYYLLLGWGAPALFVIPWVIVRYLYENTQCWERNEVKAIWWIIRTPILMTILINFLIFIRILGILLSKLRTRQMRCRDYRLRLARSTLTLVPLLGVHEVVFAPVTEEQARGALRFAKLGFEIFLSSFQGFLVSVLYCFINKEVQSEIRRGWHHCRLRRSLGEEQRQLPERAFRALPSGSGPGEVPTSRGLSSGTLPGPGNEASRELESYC
Assay: cell-based or functional assay
Listed binders paired with reported cAMP EC50 (1.0% HSA)
Express your answer in nM, writing the number without its unit.

Worked examples follow.
| Binder | cAMP EC50 (1.0% HSA), nM |
| --- | --- |
| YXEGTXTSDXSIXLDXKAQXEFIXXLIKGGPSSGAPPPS (Y-Aib-EGT-αMeF(2F)-TSD-OMeY-SI-αMeL-LD-Orn-K((2-[2-(2-Amino-ethoxy)-ethoxy]-acetyl)2-(γ-Glu)-CO-(CH2)10-CH3)AQ-Aib-EFI-(D-Glu)-αMeY-LIK((2-[2-(2-Amino-ethoxy)-ethoxy]-acetyl)2-(γ-Glu)-CO-(CH2)10-CH3)GGPSSGAPPPS-NH2) [Example 290] | 0.878 |
| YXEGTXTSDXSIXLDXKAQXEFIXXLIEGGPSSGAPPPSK (Y-Aib-EGT-αMeF(2F)-TSD-OMeY-SI-αMeL-LD-Orn-K((2-[2-(2-Amino-ethoxy)-ethoxy]-acetyl)2-CO-(CH2)12-CO2H)AQ-Aib-EFI-(D-Glu)-αMeY-LIEGGPSSGAPPPSK((2-[2-(2-Amino-ethoxy)-ethoxy]-acetyl)2-CO-(CH2)12-CO2H)-NH2) [Example 267] | 0.808 |
| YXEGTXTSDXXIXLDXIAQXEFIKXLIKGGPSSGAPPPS (Y-Aib-EGT-αMeF(2F)-TSD-4Pal-Aib-I-αMeL-LD-Orn-IAQ-Aib-EFIK((2-[2-(2-Amino-ethoxy)-ethoxy]-acetyl)-(γ-Glu)-CO-(CH2)12-CO2H)-αMeY-LIK((2-[2-(2-Amino-ethoxy)-ethoxy]-acetyl)-(γ-Glu)-CO-(CH2)12-CO2H)GGPSSGAPPPS-NH2) [Example 339] | 4.35 |
| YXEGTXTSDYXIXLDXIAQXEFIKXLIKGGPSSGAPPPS (Y-Aib-EGT-αMeF(2F)-TSDY-Aib-I-αMeL-LD-Orn-IAQ-Aib-EFIK((2-[2-(2-Amino-ethoxy)-ethoxy]-acetyl)3-(γ-Glu)-CO-(CH2)12-CO2H)-αMeY-LIK((2-[2-(2-Amino-ethoxy)-ethoxy]-acetyl)3-(γ-Glu)-CO-(CH2)12-CO2H)GGPSSGAPPPS-NH2) [Example 343] | 2.38 |
| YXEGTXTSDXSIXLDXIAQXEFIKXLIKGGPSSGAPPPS (Y-Aib-EGT-αMeF(2F)-TSD-4Pal-SI-αMeL-LD-Orn-IAQ-Aib-EFIK((2-[2-(2-Amino-ethoxy)-ethoxy]-acetyl)3-(γ-Glu)-CO-(CH2)12-CO2H)-αMeY-LIK((2-[2-(2-Amino-ethoxy)-ethoxy]-acetyl)3-(γ-Glu)-CO-(CH2)12-CO2H)GGPSSGAPPPS-NH2) [Example 226] | 4.86 |
| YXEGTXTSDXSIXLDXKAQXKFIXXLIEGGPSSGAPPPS (Y-Aib-EGT-αMeF(2F)-TSD-hTyr-SI-αMeL-LD-Orn-K((2-[2-(2-Amino-ethoxy)-ethoxy]-acetyl)2-(γ-Glu)-CO-(CH2)10-CH3)AQ-Aib-K((2-[2-(2-Amino-ethoxy)-ethoxy]-acetyl)2-(γ-Glu)-CO-(CH2)10-CH3)FI-(D-Glu)-αMeY-LIEGGPSSGAPPPS-NH2) [Example 323] | 0.694 |
| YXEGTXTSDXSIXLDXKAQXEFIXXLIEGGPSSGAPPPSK (Y-Aib-EGT-αMeF(2F)-TSD-4Pal-SI-αMeL-LD-Orn-K((2-[2-(2-Amino-ethoxy)-ethoxy]-acetyl)3-(γ-Glu)-CO-(CH2)12-CO2H)AQ-Aib-EFI-(D-Glu)-αMeY-LIEGGPSSGAPPPSK((2-[2-(2-Amino-ethoxy)-ethoxy]-acetyl)3-(γ-Glu)-CO-(CH2)12-CO2H)-NH2) [Example 225] | 1.81 |
| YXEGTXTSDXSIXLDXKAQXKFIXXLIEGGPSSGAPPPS (Y-Aib-EGT-αMeF(2F)-TSD-2Nal-SI-αMeL-LD-Orn-K((2-[2-(2-Amino-ethoxy)-ethoxy]-acetyl)2-CO-(CH2)12-CO2H)AQ-Aib-K((2-[2-(2-Amino-ethoxy)-ethoxy]-acetyl)2-CO-(CH2)12-CO2H)FI-(D-Glu)-αMeY-LIEGGPSSGAPPPS-NH2 …) [Example 255] | 2.27 |
| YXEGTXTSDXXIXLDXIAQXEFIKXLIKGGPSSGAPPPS (Y-Aib-EGT-αMeF(2F)-TSD-4Pal-Aib-I-αMeL-LD-Orn-IAQ-Aib-EFIK((2-[2-(2-Amino-ethoxy)-ethoxy]-acetyl)3-(γ-Glu)-(10-(4-carboxyphenoxy)decanoyl))-αMeY-LIK((2-[2-(2-Amino-ethoxy)-ethoxy]-acetyl)3-(γ-Glu)-(10-(4-carboxyphenoxy)decanoyl))GGPSSGAPPPS-NH2) [Example 345] | 0.731 |
| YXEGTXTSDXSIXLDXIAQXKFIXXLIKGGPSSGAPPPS (Y-Aib-EGT-αMeF(2F)-TSD-hTyr-SI-αMeL-LD-Orn-IAQ-Aib-K((2-[2-(2-Amino-ethoxy)-ethoxy]-acetyl)2-(γ-Glu)-(10-(4-carboxyphenoxy)decanoyl))FI-(D-Glu)-αMeY-LIK((2-[2-(2-Amino-ethoxy)-ethoxy]-acetyl)2-(γ-Glu)-(10-(4-carboxyphenoxy)decanoyl))GGPSSGAPPPS-NH2) [Example 332] | 4.59 |

## Input Can you look up the measured cAMP EC50 (1.0% HSA) of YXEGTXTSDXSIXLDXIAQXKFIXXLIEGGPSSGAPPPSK (Y-Aib-EGT-αMeF(2F)-TSD-4Pal-SI-αMeL-LD-Orn-IAQ-Aib-K((2-[2-(2-Amino-ethoxy)-ethoxy]-acetyl)3-(γ-Glu)-CO-(CH2)12-CO2H)FI-(D-Glu)-αMeY-LIEGGPSSGAPPPSK((2-[2-(2-Amino-ethoxy)-ethoxy]-acetyl)3-(γ-Glu)-CO-(CH2)12-CO2H)-NH2) [Example 228] for me?
## Output 3.37

## Input Which measured cAMP EC50 (1.0% HSA) value corresponds to YXEGTXTSDXXIXLDXIAQXXFIKXLIKGGPSSGAPPPS (Y-Aib-EGT-αMeF(2F)-TSD-4Pal-Aib-I-αMeL-LD-Orn-IAQ-Aib-Orn-FIK((2-[2-(2-Amino-ethoxy)-ethoxy]-acetyl)2-(γ-Glu)-CO-(CH2)12-CO2H)-αMeY-LIK((2-[2-(2-Amino-ethoxy)-ethoxy]-acetyl)2-(γ-Glu)-CO-(CH2)12-CO2H)GGPSSGAPPPS-NH2) [Example 315] ?
## Output 0.393

## Input For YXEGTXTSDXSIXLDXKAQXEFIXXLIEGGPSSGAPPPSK (Y-Aib-EGT-αMeF(2F)-TSD-4Pal-SI-αMeL-LD-Orn-K((2-[2-(2-Amino-ethoxy)-ethoxy]-acetyl)2-(γ-Glu)-(10-(4-carboxyphenoxy)decanoyl))AQ-Aib-EFI-(D-Glu)-αMeY-LIEGGPSSGAPPPSK((2-[2-(2-Amino-ethoxy)-ethoxy]-acetyl)2-(γ-Glu)-(10-(4-carboxyphenoxy)decanoyl))-NH2) [Example 273] , what is its reported cAMP EC50 (1.0% HSA)?
## Output 0.318

## Input Which cAMP EC50 (1.0% HSA) is listed for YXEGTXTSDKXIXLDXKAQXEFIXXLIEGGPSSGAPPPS (Y-Aib-EGT-αMeF(2F)-TSDK((2-[2-(2-Amino-ethoxy)-ethoxy]-acetyl)2-(γ-Glu)-CO-(CH2)10-CH3)-Aib-I-αMeL-LD-Orn-K((2-[2-(2-Amino-ethoxy)-ethoxy]-acetyl)2-(γ-Glu)-CO-(CH2)10-CH3)AQ-Aib-EFI-(D-Glu)-αMeY-LIEGGPSSGAPPPS-NH2) [Example 292] ?
## Output 0.416
